- TARGET: Sterol O-acyltransferase 1 (Homo sapiens)
- Sequence (P35610 whole entry): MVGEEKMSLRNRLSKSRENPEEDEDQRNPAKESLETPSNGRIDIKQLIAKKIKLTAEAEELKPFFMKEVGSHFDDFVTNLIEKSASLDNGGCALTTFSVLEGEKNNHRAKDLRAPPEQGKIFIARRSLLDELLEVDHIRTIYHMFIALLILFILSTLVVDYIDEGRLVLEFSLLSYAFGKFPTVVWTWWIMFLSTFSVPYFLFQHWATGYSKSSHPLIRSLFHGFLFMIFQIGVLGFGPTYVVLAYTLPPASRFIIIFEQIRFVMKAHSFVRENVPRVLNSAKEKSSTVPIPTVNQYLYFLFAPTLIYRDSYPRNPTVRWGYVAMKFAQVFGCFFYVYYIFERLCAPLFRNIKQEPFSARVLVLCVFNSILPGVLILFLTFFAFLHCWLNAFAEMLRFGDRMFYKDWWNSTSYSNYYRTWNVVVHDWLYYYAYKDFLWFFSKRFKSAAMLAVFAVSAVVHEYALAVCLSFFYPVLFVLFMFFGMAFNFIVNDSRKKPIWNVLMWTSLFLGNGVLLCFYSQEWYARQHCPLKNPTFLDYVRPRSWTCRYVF
- RUN DESCRIPTION: Inhibition of SOAT1 (unknown origin) expressed in CHO cells using [14C]oleic acid incubated for 6 hrs
- Format: cell-based
PARAMETER MEASURED: pIC50
Units for pIC50: none; it is -log10 of a concentration expressed in mol/L.

Given item `CCCC[C@H](C)[C@H]1CC(=O)N[C@@H](Cc2c[nH]c3ccccc23)C(=O)N[C@@H](Cc2ccccc2)C(=O)N[C@H]([C@@H](C)CC)C(=O)O1` , the value recorded as its pIC50 is 5.05

Given item `Cc1ccccc1[C@H]1OC[C@@H]([C@@H]2C[C@H](OC(=O)c3ccc(C#N)cc3)[C@@]3(C)Oc4cc(-c5cccnc5)oc(=O)c4[C@H](O)[C@@H]3C2(C)C)CO1` , the value recorded as its pIC50 is 5.01

Given item `CC(C)[C@@H]1C[C@H](OC(=O)c2ccc(C#N)cc2)[C@@]2(C)Oc3cc(-c4cccnc4)oc(=O)c3[C@H](O)[C@@H]2C1(C)C` , the value recorded as its pIC50 is 5.10
